- EXPERIMENTAL DETAILS: yeast display, Sf9 membrane polyspecificity reagent, FACS + sequencing; frameworks hold sequencing errors

{"MONOMER SEQUENCE": "QGQLVESGGGLVQAGGSLRLSCAASGFTFGHYAMGWYRQAPGKERELVAAIRWSGGSTYYADSVKGRFTISRDNAKNTVYLQMNSLKPEDTAVYYCAARGFDGYEYDYWGQGTQVTVSS", "polyreactivity (PSR sort gate)": "low polyreactivity"}
{"MONOMER SEQUENCE": "QVQLVESGGGLVQAGGRLRLSCAASGRTFRPYALGWYRQPPVKERELVAAIDSSGTSTYYADSVKGRFTISRDNAKNTVYLQMNSLKPEDTAVYDCAQASPDHWYSRYDYWGQGTQVTVSS", "polyreactivity (PSR sort gate)": "low polyreactivity"}
{"MONOMER SEQUENCE": "QVQLVESGGGLVQAGGSLRLSCAASGVTFYHNAMGSYRQAPGKERELVAAISSSGDSTYYADSVKGRFTISRDNAKNTVYLHMNSLKPEDTAVYYCNDYFYYLSLYYYYWFNYDYWGQGTQVTVSS", "polyreactivity (PSR sort gate)": "low polyreactivity"}
{"MONOMER SEQUENCE": "QVQLVESGGGLVQAGGSRRLSCAASGGTFVSYAMGWYIQAPGKERELVADITYSGGSTYYADSVKGRFTISRDNAKNTVYLQMNSLKPEDTAVYYCAADLGRNLLHTYYYWGQGTQVTVSS", "polyreactivity (PSR sort gate)": "low polyreactivity"}

----------
- EXPERIMENTAL DETAILS: yeast display, Sf9 membrane polyspecificity reagent, FACS + sequencing; frameworks hold sequencing errors
RECORDED METRIC: polyreactivity (PSR sort gate)

Look over these answered cases.
{"MONOMER SEQUENCE": "QVQLVESGGGLVQAGGSLRLSCAASGSTFVVYAMGWYRQAPGKERELVAAISYRAGITYYADSVKGRFTISRDNAKNTVYLQMNSLKPEDTAVYYWAADRYYGVGSGYWGQGTQVTVSS", "polyreactivity (PSR sort gate)": "high polyreactivity"}
{"MONOMER SEQUENCE": "QVQLVESGGGLVQAGGSLRLSCAASGSIFYPYAMGWYRQAPGKERELVAAIRWRGGNTYYADSVKGRFTISRDNAKNTVYLQMNSLKPEDTAVYYCAADGKYLQGFGYYYWGQGTQVTVSS", "polyreactivity (PSR sort gate)": "high polyreactivity"}
{"MONOMER SEQUENCE": "QVQLVESGGGLVQAGGSLRLSCAASGRTFKRYAMGWYRQAPGKERELVAAITASGGNTYYADSVKGRFTISRDNAKNTVYLQMNSLKPEDTAVYYCNAVTSVQARPRNYYYWGQGTQVTVSS", "polyreactivity (PSR sort gate)": "high polyreactivity"}
{"MONOMER SEQUENCE": "QVQLVESGGGLVQAGGSLRLSCAASGYTFIVNAMGWYRQAPGKERELVAAISRSGSSTRYADSVKWRFTISRDNAKNTVYLQMNSLKPEDTAVYYCGADLYSSEGRYYYWGQGTQVTVST", "polyreactivity (PSR sort gate)": "high polyreactivity"}
{"MONOMER SEQUENCE": "QVQLEESGGGLVQAGGTLRLSCAASGSIFYGYAMGWYRKATGKQRDLVAVITDGGGSTYYADSVKGRFTISRDNAKNTVYLQMNSLKPEDTAVYYCAADSWGRYYYSSYSYDYWGQGTQVTVSS", "polyreactivity (PSR sort gate)": "low polyreactivity"}

Task: Name the recorded polyreactivity (PSR sort gate) of the item QVQLVESGGGLVQAGGSLRLSCAASGTTIQGYAMGWYRQAPGKERELVAAISGSGGTTYYADSVKGRFTISRDNAKNTVYLQMNSLKPEDTAVYYCAAYVFYNFGVYTRGYYYWGQGTQVTVSS in your answer.
Output: high polyreactivity

Task: Kindly indicate its recorded polyreactivity (PSR sort gate). Item: QVQLLESGGGLVQAGGSLRLSCAASVFTFYGYAMGWYRQAPGKERELVAAISRRGGSTYYADSVKGRFTISRDNAKNTVYLQMNSLKPEDTAVYYCATDRAYYHSYGRFGYWGQGTQVTVSS
Output: high polyreactivity

Task: Answer with the recorded polyreactivity (PSR sort gate) for the sequence listed here: QVQLVESGGGLVQAGGSLRLSCAASGRTIGYYAMGWYRQAPGKERELDAAITRSGGSTYYADSVKGRFTISRDNAKNTVYLQMKSLKPEDTAVYYCATYSVSGKPLGYWGHGTQVTVSS
Output: low polyreactivity

Task: Report measured polyreactivity (PSR sort gate); entry is QVQHVESGGGLVQAGGSLRLSCAASGRTFLKNAMGWYRHAPVKERELVAAITSGGSTNYADSVKGRFTISRDNAKNTVYIQMNSLKPEDTAVYYCNAPSYWYYPVLGSFLTFDYWGQGTQVTVSS
Output: low polyreactivity

Task: Provide one value: measured polyreactivity (PSR sort gate) of QVQRVESGGGLVQAGGSLRLSCAASGSIFYSYAMGWYRQAPGKARELVATISWSGGRTNYADSVQGRFTISRDNAKNTVYLQMNSLKPEDTAVYYCAADIPPWGGDYWGQGTQVTVSS
Output: low polyreactivity

Task: Answer with the recorded polyreactivity (PSR sort gate) of QVQLVESGGGLVQAGGSLRLSSAASGNIMDVYAMGWYRQAPGKERELVAAISGTDGSTYYADSVKGRFTISRDNAKNTVYLQMNSLKPEDTAVYYCAAEYVYFWWGENYWGQGTQVTVSS only.
Output: high polyreactivity

Task: Give the measured polyreactivity (PSR sort gate) for QVQLVESGGGLVQAGGSLRLSCAAYGIIFNSYFMGWYRPAPGKERELVAAITGSCGRTYYADSVKGRFTISRDNAKNTVYLQIISLKPEDTAVYYCSATNRGQVYGAWYNSWGQGTQVTVSS
Output: high polyreactivity

Task: Consider the sequence QVQHEESGGGLDQPGGSLRLTCAASGRIFNGYKMGWYRKAPGKETEFVDTISRSGGSTYYADSVKGRFTISRDNAKNSVYLQMNSLKPEDTAVYYCAKSYPDKWEYDYWGQGTQVTVSS and give its recorded polyreactivity (PSR sort gate).
Output: low polyreactivity

Task: Look up and report measured polyreactivity (PSR sort gate) for this entry: QVQLVESGGGLVQAGGSLRLICAASGRTCRTYTMGLYRQATGKEREFVAAITSSGASTYYADSVKGRFTISRDKAKNTVYLQMNSLKPEDTAVYYCAARPRPRSANGMYYWGQVTQVTVSS
Output: high polyreactivity

Task: Indicate the recorded polyreactivity (PSR sort gate) value for this sequence: QVQLVESGAGLVQAGGSLRLSCAPSGNIFSVYAMGWYRHAPGKARELVARITKTVGGTYYADSVKGRFTISRDNAKNTVYLQMNSLKPEDTAVYYCAARVWTGNGGSKGAYDYWGQGTQVTVSS
Output: high polyreactivity

Task: Please indicate polyreactivity (PSR sort gate) recorded for QVQLVESGGGLVQAGGSLRLSCAASGSTFTDYAMGWYRQAPGKERELVASITSGGRTNYADSVKGRFTISRDNAKNTVYLQMNSLKPEDTAVYYCNASAWLVVARTRYGYWGQGTQVTVSS
Output: low polyreactivity

Task: Name the recorded polyreactivity (PSR sort gate) of the item QVQLVESGGGLVQAGGSLRLSCAASGRTFSRYAMGWYRQAPGKERELVAAITYSGGRTYYADSVKGRFTISRDNAKNTVYLQMNSLKPEDTAVYYCAKGTTSDPGYGYWGQGTQVTVSS in your answer.
Output: low polyreactivity

Task: For the sequence QVQLVESGGGLVQAGGSLRLSCAASGFIFAGYHMAWYRQAPGKERELVAAISSSGANTYYADSVKGRFTISRDNAKNTVYLQMNSLKPEYSAVYYCAALYHWTYDYWGQGTQVTVSS , give its reported polyreactivity (PSR sort gate).
Output: low polyreactivity
